Assay: yeast display, Sf9 membrane polyspecificity reagent, FACS + sequencing; frameworks hold sequencing errors
Measured Attribute: polyreactivity (PSR sort gate)

>  <Entry Sequence>
QVQLVESGGGLVQAGGSLRLSCAASGLTFWAYAMGWYRQAPGKEREFVAAISWSGDSTYYADSVKGRFTISRDNAKNTVYLQMNSLKPEDTAVYYCAAEWYYVYIAPYDYWGQGTQVTVSS

>  <Result>
low polyreactivity

$$$$
>  <Entry Sequence>
QVQLVESGGGLVQAGGSLRLSCAASGFIFLLNAMGWYRQAPGKEREFVAAISWGGGSTYYADSVKGRFTISRDNAKNTVYLQMNSLKPEDTAVYYCAAKPGKTPLTGHRGPYDTGYGYWGQGTQVTVSS

>  <Result>
low polyreactivity

$$$$

* * *

Test: yeast display, Sf9 membrane polyspecificity reagent, FACS + sequencing; frameworks hold sequencing errors
Measured Attribute: polyreactivity (PSR sort gate)

As a guide, the following entries are already answered.
>  <Entry Sequence>
QVQLVESGGGLVQAGGSLRLSCAASGRIFSKYTMGWYIQAPGKEMELVAAISGSGTSTYYADSVKGRFTISRDNAKNTVYLQMNSLKPEDTAVYYCNAVKSWGHPGRYYWGQGTQVTVSS

>  <Result>
high polyreactivity

$$$$
>  <Entry Sequence>
QVQLVESGGGLVQAGGSLRLSCAASGRIFAYYAMGWYRQAPGKESELVAAINWSGDGTNYADSVKGRFTISRDNAKNTVYLQMNSLKPVDTAVYYCAARLGHSVNPGGERWDVEYWGQGTQVTVSS

>  <Result>
low polyreactivity

$$$$
>  <Entry Sequence>
QLQLVESGGGLVQAGGSLRLSCAASGRTFQIYAMGWYRQAPVNERELVARITGVGSTNYADSVKGRFTISRDNAKNTVYLQMNSLKPEDTAVYYCNKRDGNWEYDYWGQGTQVTVSS

>  <Result>
low polyreactivity

$$$$
>  <Entry Sequence>
QVQLVESGGGLVQAGGILRLSCAASGITFVRNAMGWYRQAPGKDREFVAAINSIVGRTYYADSVKGRFTISRDNAKNTVYLQMNSLKPEDTAVYDCAADSNVRYGMDYWGLGTQVTVSS

>  <Result>
low polyreactivity

$$$$
>  <Entry Sequence>
QVQLLESCGGLVQAGGSLRLSCAASGGTFQRYAMGWYRQAPGKERELVAAISSGGRTYYADSVKGRFTISRDNAKNTVYLEMNSLKAEDNAVYYCNAVGWTQRGRMFEYWGQGTQVTVSS

>  <Result>
high polyreactivity

$$$$

Batch request: polyreactivity (PSR sort gate) per item, same order as input.
1. QVQLVESGGGLFHAGGSLRLSCAASGSIFVRNVMGGYRQAPGKERELVAAISRSGVSTYYADSVKGRFTISRDNAKNTVSLQMNSLKPEDTAVSYCNAGWRRRNSTGYPWGYDYWGQGTQVTVSS
2. QVQLQESGGGLVQAGGSMRLSCAASGSISELRPMGWYRQAPGKERELVAGISTGGSTNYADSVKGRFTISRDNAKNTVYLQMNSLKPEDTAVYYCAAASYGEGTYDYWGQGTQVTVRS
3. QVQLVESGGGLVEAGGSLRLSSAASGINFKMYAMVWSRQAPGKERELVADITYVGSTKYADSVKGRFTISRDNAKNTFYLQMNSLKPEDTAVYYFNAAQYYWYEYDYWGQGTQVTVSS
4. QVQLVESGGGLVQAGGSLRLSCAAYGRIFFNNAMGWYRQAPGKERELVAAINSGGRTNYADSVKGRFTISRDNAKNTVYLQMNSLKPEDTAVYYCNADDYPVWEFDYWGQGTQVTVSS
5. QVQLVESGGGLVQAGGSLRLSCAASGSTLFTYAMGWYRQAPGKERELVAAITSSGSTYYADSVKGRFTISRDNAKNTVYFQMNSLKPEDTAVYYCAVPGYRYTKYYYWGQGTQVTVSS
6. QVQLVESGGGLVQAGGSLRLSCADSGSIFYPYAKGLYRQDPGKERELVATITSSGSSTYYADSVKGRFTISRDNAKNTVYLQMNSLKPEDTAVYYCAAYRVILYYLYDYWGQGTQVTLSS

Reply text:
1: high polyreactivity; 2: high polyreactivity; 3: low polyreactivity; 4: low polyreactivity; 5: low polyreactivity; 6: low polyreactivity
